Target: T1, Bud14, P27637
T1 sequence (P27637 247-328, looked up): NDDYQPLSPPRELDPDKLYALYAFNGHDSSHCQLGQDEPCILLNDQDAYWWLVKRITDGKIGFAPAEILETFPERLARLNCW
Assay: SPOT array
Settings: median of control spots 956
metric: SPOT intensity

Below, 4 binders whose answers are already recorded.
* RPKRRAPPPVPKKPS | 6
* RRGPAPPPPPRASRP | 8
* APPPPPRRATPEKKP | 0
* KRRAPPPVPKKPSSR | 9

(A) LPMNIQPDLPPRKIM
(B) LKHGWKPLRPIKLIS
(C) YSRKKLPVVLSKMTL
(D) VPPVPLPFGIPPFPM
(E) TKIRRRPQQPLTDFT
Would you mind ranking these binders by ascending SPOT intensity? Response field: labels, in requested order.
A, D, C, B, E
(A: 0, D: 2, C: 3, B: 8, E: 24)

(I) GSKSGPPPRPKKPST
(II) PKMLPIPSKPTLFDL
Lowest SPOT intensity? choose I or II Field: selected label. Fill in the label of the entry you choose.
II

(P) VRTRRRPPPPPIPST
(Q) GKFIPSRPAPKPPSS
Which one would you say has the larger SPOT intensity value: P , or Q ? Field: selected label. Fill in the label of the entry you choose.
P
(P: 8, Q: 0)

(P) PAPPPPPRASRPTPN
(Q) YHSRRHPLALGFKYV
Lowest SPOT intensity? choose P or Q Field: selected label. Fill in the label of the entry you choose.
Q
